Value source: paper PMC12416549

Measured target: T1, TNFR1 (Homo sapiens, UniProt P19438)
T1 chain: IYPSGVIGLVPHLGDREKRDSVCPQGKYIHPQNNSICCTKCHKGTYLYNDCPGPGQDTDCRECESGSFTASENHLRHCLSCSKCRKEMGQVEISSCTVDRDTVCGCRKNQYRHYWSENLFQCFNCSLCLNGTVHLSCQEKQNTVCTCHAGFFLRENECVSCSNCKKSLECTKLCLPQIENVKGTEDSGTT
Protocol summary: yeast display SC50
Answer each item with its documented apparent Kd (screen).
Give bare numbers, in nM.

Example entries and their recorded answers appear below.
{"Binder": "A55L (designed binder) SMEEEVEKAAKEYEKKKKEAIEKHLEKLKAKDKEAAERFLKELEEAAKEYAKDELKTMSEEEAKRRAKKYKEKVLLSELSEEEQKEIKEAEEKLVRTILKYVEEAAK", "Measured number": 0.593}
{"Binder": "M2D (designed binder) SDEEEVEKAAKEYEKKKKEAIEKHLEKLKAKDKEAAERFLKELEEAAKEYAKDEAKTMSEEEAKRRAKKYKEKVLLSELSEEEQKEIKEAEEKLVRTILKYVEEAAK", "Measured number": 0.446}
{"Binder": "Q84W (designed binder) SMEEEVEKAAKEYEKKKKEAIEKHLEKLKAKDKEAAERFLKELEEAAKEYAKDEAKTMSEEEAKRRAKKYKEKVLLSELSEEEWKEIKEAEEKLVRTILKYVEEAAK", "Measured number": 12.5}

Shifting focus to the binder that follows.
Query: apparent Kd (screen); subject: V95P (designed binder) SMEEEVEKAAKEYEKKKKEAIEKHLEKLKAKDKEAAERFLKELEEAAKEYAKDEAKTMSEEEAKRRAKKYKEKVLLSELSEEEQKEIKEAEEKLPRTILKYVEEAAK
5.31
